- method: Dog half-life (measured), in vivo pharmacokinetics
- measurement_context: male, 1 mg/kg; elimination half-life in plasma, intravenous 30 minute infusion, beagle dog, mean of a minimum of two dogs

{"compound": "CC1CN(S(=O)(=O)Nc2cc(O[C@H](C)[C@@H](O)CO)nc(SCc3ccc(F)cc3)n2)C1 [Example 1]", "half-life / h": 3.7}

* * *

- method: Human hepatic intrinsic clearance (CLint) from human hepatocyte incubations
- Type: in vitro ADME
- measurement_context: cryopreserved human hepatocytes in suspension, 1×10^6 cells/ml, 1 μM compound, no HSA, pH 7.4
reported_property: hepatocyte CLint at 1 μM (µL/min/1e6 cells)

{"compound": "CC1CN(S(=O)(=O)Nc2cc(O[C@H](C)[C@@H](O)CO)nc(SCc3ccc(F)cc3)n2)C1 [Example 1]", "output_unit": "µL/min/1e6 cells", "experimental_value": 2.9}

The reported measurements were obtained from patent US9975881B2.
